B1: PLD5 (parent)
chain: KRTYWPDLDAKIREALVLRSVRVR

Variants of: B1
method-description: protein stability index of a GFP-peptide fusion (GPS, HEK-293T) (PSI 1-6); higher = more stable;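 further: lentivirally expressed fusions sorted by FACS into six bins by GFP to DsRed ratio, PSI derived from sequencing read proportions per bin multiplied by bin number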
condition-summary: c terminus: a fixed tail appended
Below, each of the variants is paired with its reported protein stability index value.
Just the number, please, no unit after it.

Here is how some variants turned out for protein stability index.
variant-id	val
L18F	1.78
W5S	2.66
R13K	1.9
D7C	1.61
R24C	2.52
V17S	1.95
R22D	2.31
V21K	2.75
L16S	2.51
Y4V	3.54

Exam item: Quick one: protein stability index for R22V ?
Marked response: 2.14

Exam item: Quick check: protein stability index of D9H ?
Marked response: 2.57

Sourced from the supplement of paper PMC10567573
